Test system: Echinochloa crus-galli (ECHCG)
Experiment: Pre-emergence biological efficacy, glasshouse, 1000 g/ha, evaluated after 13 days (100=total damage to plant; 0=no damage to plant)
Type: in vivo
Conditions: Echinochloa crus-galli, 312 h, rate 1,000 g/ha, read-out: Percentage damage caused to weed species, pre-emergence, ECHCG
Method: Seeds of Alopecurus myosuroides (ALOMY), Setaria faberi (SETFA), Echinochloa crus-galli (ECHCG), Solanum nigrum (SOLNI), Amaranthus retroflexus (AMARE) and Ipomoea hederaceae (IPOHE) were sown in standard soil in pots. […] The test plants were then grown under controlled conditions in the glasshouse (at 24/16° C., day/night; 14 hours light; 65% humidity) and watered twice daily. […]

{"columns": ["compound", "pest or weed control at 1000 g/ha, %"],
 "data": [
  ["COC(=O)c1nc(C2CC2)nc2c1Nc1ccccc1N2 [Compound 119-28]", 0],
  ["COC(=O)c1nc(-c2ccc(Cl)c(F)c2)nc2c1ccn2CC1CC1 [Compound 5-18]", 0],
  ["COC(=O)c1nc(-c2ccc(Cl)c(OC)c2F)cc2c1c(C)cn2C(=O)OC [Compound 38-64]", 0],
  ["COCCOCCOC(=O)c1nc(-c2ccc(Cl)c(OC)c2F)nc2[nH]cc(C)c12 [Compound 1-85]", 0],
  ["COC(=O)c1nc(-c2ccc(Cl)c(OC)c2F)nc2c1NC(c1ccccc1)C(c1ccccc1)N2 (centres unmarked) [Compound 91-204]", 0],
  ["COC(=O)c1nc(-c2ccc(Cl)c(OC)c2F)cc2[nH]ccc12 [Compound 22-62]", 0],
  ["COC(=O)c1nc(-c2ccc(Cl)c(OC)c2F)cc2[nH]cc(C)c12 [Compound 22-64]", 70],
  ["COC(=O)c1nc(-c2ccc(Cl)c(OC)c2F)nc2c1N(Cc1ccccc1)C(C)N2Cc1ccccc1 (centres unmarked) [Compound 81-46]", 0],
  ["CCCCOCC(C)OC(=O)c1nc(-c2ccc(Cl)c(OC)c2F)cc2[nH]cc(C)c12 (centres unmarked) [Compound 22-84]", 20],
  ["COc1c(Cl)ccc(-c2nc3c(c(C(=O)O)n2)N[C@@H]2CCCC[C@H]2N3)c1F [Compound 91-207]", 0],
  ["COC(=O)c1nc(-c2ccc(Cl)c(OC)c2F)nc2c1c(C)cn2C(=O)C(C)(C)C [Compound 16-64]", 0],
  ["O=C(O)c1nc(Cl)nc2[nH]ccc12 [Compound 1-121]", 0],
  ["COC(=O)c1nc(-c2ccc(Cl)c(OC)c2F)nc2c1cc(C)n2Cc1ccco1 [Compound 11-66]", 0],
  ["CCOC(=O)c1nc(-c2ccc(Cl)c(OC)c2F)cc2[nH]cc(C)c12 [Compound 22-75]", 10],
  ["COc1c(Cl)ccc(-c2nc(C(=O)O)c3c(C)cn(Cc4ccc(C(F)(F)F)o4)c3n2)c1F [Compound 12-63]", 0],
  ["COC(=O)c1nc(-c2ccc(Cl)c(OC)c2F)nc2c1c(C)cn2C(=O)OC [Compound 17-64]", 0],
  ["COc1c(Cl)ccc(-c2nc(C(=O)O)c3c(n2)N(C(C)C)CCN3C(C)C)c1F [Compound 93-165]", 0],
  ["COC(=O)c1nc(C2CC2)nc2c1NC(c1ccccc1)C(c1ccccc1)N2 (centres unmarked) [Compound 91-44]", 10],
  ["COC(=O)c1nc(-c2ccc(Cl)c(OC)c2F)nc2c1OCCN2C [Compound 106-74]", 0],
  ["COc1c(Cl)ccc(-c2nc(C(=O)O)c3cc(C)[nH]c3n2)c1F [Compound 1-65]", 0],
  ["COc1c(Cl)ccc(-c2nc(C(=O)OC(C)C)c3c(C)c[nH]c3n2)c1F [Compound 1-78]", 0],
  ["COC(=O)c1nc(Cl)nc2c1cc(C)n2Cc1ccco1 [Compound 11-126]", 0],
  ["COc1c(Cl)ccc(-c2nc(C(=O)O)c3c(C)cn(Cc4ccccc4)c3n2)c1F [Compound 6-63]", 0],
  ["COC(=O)c1nc(-c2ccc(Cl)c(OC)c2F)cc2c1c(C)cn2C(=O)C(C)(C)C [Compound 37-64]", 0],
  ["COc1c(Cl)ccc(-c2cc3[nH]cc(C)c3c(C(=O)OCc3ccco3)n2)c1F [Compound 22-87]", 10],
  ["CCOCn1cc(C)c2c(C(=O)O)nc(-c3ccc(Cl)c(OC)c3F)nc21 [Compound 3-63]", 0],
  ["COc1c(Cl)ccc(-c2cc3[nH]cc(C)c3c(C(=O)OC(C)C)n2)c1F [Compound 22-78]", 0],
  ["COc1c(Cl)ccc(-c2cc3[nH]cc(C)c3c(C(=O)O)n2)c1F [Compound 22-63]", 0],
  ["COC(=O)c1nc(Cl)nc2[nH]c(C)cc12 [Compound 1-126]", 0]
]}

----------
Test system: Echinochloa crus-galli (ECHCG)
Experiment: Pre-emergence biological efficacy, glasshouse, 1000 g/ha, evaluated after 13 days (100=total damage to plant; 0=no damage to plant)
Assay type: in vivo
Conditions: Echinochloa crus-galli, 312 h, rate 1,000 g/ha, read-out: Percentage damage caused to weed species, pre-emergence, ECHCG
readout.label: pest or weed control at 1000 g/ha (%)

{"columns": ["compound", "readout.label", "result.unit", "reading"],
 "data": [
  ["COc1c(Cl)ccc(-c2nc3c(c(C(=O)O)n2)NC(c2ccccc2)C(c2ccccc2)N3)c1F (centres unmarked)", "pest or weed control at 1000 g/ha", "%", 0],
  ["COC(=O)c1nc(-c2ccc(Cl)c(N(C)C)c2F)nc2[nH]cc(C)c12", "pest or weed control at 1000 g/ha", "%", 0],
  ["COCCOCCOC(=O)c1nc(-c2ccc(Cl)c(OC)c2F)cc2[nH]cc(C)c12", "pest or weed control at 1000 g/ha", "%", 10],
  ["C=CCOC(=O)c1nc(-c2ccc(Cl)c(OC)c2F)cc2[nH]cc(C)c12", "pest or weed control at 1000 g/ha", "%", 20],
  ["CCCCCCCCOC(=O)c1nc(-c2ccc(Cl)c(OC)c2F)nc2[nH]cc(C)c12", "pest or weed control at 1000 g/ha", "%", 0],
  ["COc1c(Cl)ccc(-c2nc(C(=O)O)c3cc(C)n(Cc4ccccc4)c3n2)c1F", "pest or weed control at 1000 g/ha", "%", 0],
  ["COC(=O)c1nc(-c2ccc(Cl)c(OC)c2F)nc2[nH]c(-c3ccccc3)c(C)c12", "pest or weed control at 1000 g/ha", "%", 0],
  ["COC(=O)c1nc(C2CC2)nc2[nH]ccc12", "pest or weed control at 1000 g/ha", "%", 0],
  ["COC(=O)c1nc(-c2ccc(Cl)c(OC)c2F)nc2c1c(C)cn2Cc1ccccc1", "pest or weed control at 1000 g/ha", "%", 0],
  ["COC(=O)c1nc(-c2ccc(Cl)c(OC)c2F)nc2c1cc(C)n2Cc1ccccc1", "pest or weed control at 1000 g/ha", "%", 0],
  ["COC(=O)c1nc(-c2ccc(Cl)c(OC)c2F)nc2c1N(C)CCN2C", "pest or weed control at 1000 g/ha", "%", 0],
  ["COC(=O)c1nc(Cl)cc2[nH]cc(Cl)c12", "pest or weed control at 1000 g/ha", "%", 0],
  ["COc1c(Cl)ccc(-c2cc3[nH]cc(C)c3c(C(=O)OCC3CCCO3)n2)c1F (centres unmarked)", "pest or weed control at 1000 g/ha", "%", 0],
  ["COc1c(Cl)ccc(-c2nc(C(=O)O)c3c(C)c[nH]c3n2)c1F", "pest or weed control at 1000 g/ha", "%", 20],
  ["COC(=O)c1nc(-c2ccc(Cl)c(F)c2)nc2c1ccn2Cc1ccco1", "pest or weed control at 1000 g/ha", "%", 0],
  ["COc1c(Cl)ccc(-c2nc(C(=O)O)c3cc(C)n(Cc4ccccc4[N+](=O)[O-])c3n2)c1F", "pest or weed control at 1000 g/ha", "%", 0],
  ["COC(=O)c1nc(-c2ccc(Cl)c(N(C)C)c2F)nc2[nH]c(C)cc12", "pest or weed control at 1000 g/ha", "%", 10]
]}

----------
System: Setaria faberi (SETFA)
Test: Pre-emergence biological efficacy, glasshouse, 1000 g/ha, evaluated after 13 days (100=total damage to plant; 0=no damage to plant)
Format: in vivo
Conditions: Setaria faberi, 312 h, rate 1,000 g/ha, read-out: Percentage damage caused to weed species, pre-emergence, SETFA
Protocol: Seeds of Alopecurus myosuroides (ALOMY), Setaria faberi (SETFA), Echinochloa crus-galli (ECHCG), Solanum nigrum (SOLNI), Amaranthus retroflexus (AMARE) and Ipomoea hederaceae (IPOHE) were sown in standard soil in pots. […] The test plants were then grown under controlled conditions in the glasshouse (at 24/16° C., day/night; 14 hours light; 65% humidity) and watered twice daily. […]
readout.label: pest or weed control at 1000 g/ha (%)

{"columns": ["compound", "readout.label", "result.unit", "reading"],
 "data": [
  ["CCCCOCC(C)OC(=O)c1nc(-c2ccc(Cl)c(OC)c2F)nc2[nH]cc(C)c12 (centres unmarked)", "pest or weed control at 1000 g/ha", "%", 10],
  ["COc1c(Cl)ccc(-c2nc(C(=O)O)c3c(C)cn(Cc4ccc(C(F)(F)F)o4)c3n2)c1F", "pest or weed control at 1000 g/ha", "%", 20],
  ["COC(=O)c1nc(C2CC2)nc2[nH]cc(C)c12", "pest or weed control at 1000 g/ha", "%", 30],
  ["O=C(O)c1nc(-c2ccc(Cl)c(F)c2)nc2c1ccn2Cc1ccccc1[N+](=O)[O-]", "pest or weed control at 1000 g/ha", "%", 0],
  ["CCOCn1cc(C)c2c(C(=O)O)nc(-c3ccc(Cl)c(OC)c3F)nc21", "pest or weed control at 1000 g/ha", "%", 0],
  ["COC(=O)c1nc(Cl)cc2[nH]cc(Cl)c12", "pest or weed control at 1000 g/ha", "%", 0],
  ["COc1c(Cl)ccc(-c2nc(C(=O)OCc3ccccc3)c3c(C)c[nH]c3n2)c1F", "pest or weed control at 1000 g/ha", "%", 0],
  ["COC(=O)c1nc(-c2ccc(Cl)c(F)c2)nc2c1ccn2Cc1ccco1", "pest or weed control at 1000 g/ha", "%", 0]
]}
